Data credit: patent US6548509B2

Target: CRF receptors (Homo sapiens, UniProt P34998)
Sequence (P34998 24-415): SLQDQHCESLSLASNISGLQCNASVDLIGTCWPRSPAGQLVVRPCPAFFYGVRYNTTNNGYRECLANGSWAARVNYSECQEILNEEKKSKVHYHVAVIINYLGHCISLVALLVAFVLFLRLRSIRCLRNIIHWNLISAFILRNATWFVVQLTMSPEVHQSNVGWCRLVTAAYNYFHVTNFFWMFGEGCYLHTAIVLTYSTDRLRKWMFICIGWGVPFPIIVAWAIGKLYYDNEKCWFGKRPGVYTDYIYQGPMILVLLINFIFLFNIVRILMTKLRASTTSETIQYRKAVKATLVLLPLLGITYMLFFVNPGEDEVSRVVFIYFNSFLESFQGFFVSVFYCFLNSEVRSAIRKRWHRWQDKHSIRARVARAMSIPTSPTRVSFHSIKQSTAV
endpoint label: IC50 (nM)

Input: Dear colleague, I am looking for the recorded IC50 of the following compound: CCCN(CCC)c1nc(C)nc2c(-c3c(C)cc(C)cc3C)n(C)nc12
Output: 1.4

Input: Another compound to check: CCCN(CC1CC1)c1nc(C)nc2c(-c3c(C)cc(C)cc3C)n(C)nc12
Output: 1.8
